biological target: catalytic domain of human Bub1 (amino acids 704-1085) (Homo sapiens (Human), UniProt O43683)
Sequence (O43683 704-1085): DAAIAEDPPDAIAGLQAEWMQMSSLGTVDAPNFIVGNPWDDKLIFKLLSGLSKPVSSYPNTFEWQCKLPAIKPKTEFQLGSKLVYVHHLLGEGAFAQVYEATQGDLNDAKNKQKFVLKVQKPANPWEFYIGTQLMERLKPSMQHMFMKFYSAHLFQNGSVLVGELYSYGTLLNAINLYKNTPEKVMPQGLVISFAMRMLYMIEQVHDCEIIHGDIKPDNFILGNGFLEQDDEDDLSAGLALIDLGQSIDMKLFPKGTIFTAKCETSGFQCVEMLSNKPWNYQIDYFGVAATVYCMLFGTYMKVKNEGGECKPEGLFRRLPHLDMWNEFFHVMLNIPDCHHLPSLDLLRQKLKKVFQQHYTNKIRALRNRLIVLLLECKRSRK
# class assignment by measured IC50: LOW (below 10 nM), MID (10 nM to below 40 nM), HIGH (40 nM or more)

COMPOUND	CATEGORY
COc1cnc(-c2nn(Cc3c(Cl)ccc(CO)c3Cl)c3ccccc23)nc1Nc1ccncc1 [Example 15-5]	MID
N#Cc1cnccc1Nc1nc(-c2nn(Cc3ccccc3F)c3ccccc23)ncc1O	MID
CCOc1cc(F)c(Cn2nc(-c3ncc(OC(F)F)c(Nc4ccncc4)n3)c3ccccc32)c(F)c1	MID
COc1cnc(-c2nn(Cc3c(F)cc(O)cc3F)c3ccccc23)nc1Nc1ccncc1C(N)=O	LOW
CCOc1cc(F)c(Cn2nc(-c3nccc(N(C(=O)COCCOC)c4ccncc4)n3)c3ccccc32)c(F)c1	MID

QUERY: Which IC50 category applies to COc1cnc(-c2nn(Cc3ccc(I)cc3Cl)c3ccccc23)nc1Nc1ccncc1 here?
RESULT: MID

QUERY: Which class does COc1cnc(-c2nn(Cc3cccc(C(C)(C)CO)c3)c3ccccc23)nc1Nc1ccncc1 fall in?
RESULT: HIGH

QUERY: Determine which band this compound sits in: COc1cnc(-c2nn(Cc3ccc(F)cc3)c3ccccc23)nc1Nc1ccncc1
RESULT: HIGH

QUERY: Assign a category based on measured IC50 for Fc1ccccc1Cn1nc(-c2ncc(OCc3nnn[nH]3)c(Nc3ccncc3)n2)c2ccccc21 and give only the class name.
RESULT: MID

QUERY: Any idea which band COc1ccc(Cn2nc(-c3nccc(Nc4ccncc4)n3)c3ccccc32)cc1 is in?
RESULT: MID
